Values compiled from the supplement of paper PMC6555819.

test system: RARb homodimer (NR concentration 270 nM); assay: PBM binding z-score (relative to random genomic background probes); higher = stronger binding; sequences stand for … in GC…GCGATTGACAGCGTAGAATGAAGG
Each entry below carries its reported PBM binding z-score.
measured-metric: PBM binding z-score

record_sequence=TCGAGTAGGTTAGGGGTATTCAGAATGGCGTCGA test_result=0.614
record_sequence=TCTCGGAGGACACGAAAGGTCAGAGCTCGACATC test_result=4.73
record_sequence=TCACATAGGTAAAAGGTGAAAGTCGGTGTGGTAA test_result=1.98
record_sequence=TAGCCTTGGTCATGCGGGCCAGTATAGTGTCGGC test_result=-0.234
